Where do these numbers come from? They come from the NIST ThermoML archive (doi:10.1021/je700662a).

Parameter: molar heat capacity at constant pressure. Scope: all listed entries.
- measurementProtocol: molar heat capacity at constant pressure
- conditionSet: 233 K; 101.33 kPa; Crystal 2; Large sample (1 g) DSC

compound: CCCCCCCCCCCC(N)=O [dodecanamide]
quantityUnit: J/K/mol
molar heat capacity at constant pressure: 245.9
//
compound: CCCCCCCCCCCCCCCC(N)=O [hexadecanamide]
quantityUnit: J/K/mol
molar heat capacity at constant pressure: 297.1
//
compound: CCCCCC(N)=O [hexanamide]
quantityUnit: J/K/mol
molar heat capacity at constant pressure: 155.3
//
compound: CCCCC(N)=O [pentanamide]
quantityUnit: J/K/mol
molar heat capacity at constant pressure: 175
//
compound: CCCCCCCC(N)=O [octanamide]
quantityUnit: J/K/mol
molar heat capacity at constant pressure: 232.8
//
compound: CCCCCCCCCCCCCCCCCC(N)=O [octadecanamide]
quantityUnit: J/K/mol
molar heat capacity at constant pressure: 360.8
